Source of measurements: patent US6969732B2

Listing of entries alongside the reported Vd.
# ASSAY_PROTOCOL: Pharmacokinetic studies in mongrel dogs, intravenous injection
# Format: in vivo
# APPLIED_CONDITIONS: mongrel, dog, plasma, iv, 10 mg/kg, given as individual enantiomers, 10 mg/kg iv, read-out: Vβ (volume of distribution)
# Experimental: Pharmacokinetic experiments were carried out on six mongrel dogs weighing 18-25 kg. Dogs were housed in an animal farm and were brought to the lab repeatedly every two-three weeks for crossover experiments after an overnight fast. […] Each dog was intravenously injected with […] (10 mg/kg) of each enantiomer separately or […] of the racemate, dissolved in 2 ml of 96% ethyl alcohol. […] The urine volume was recorded and an aliquot was stored at […] until analyzed. […]
Report the figure in L without appending any unit label.

{"COMPOUND": "CCC[C@@H](C(N)=O)C(C)C [(R)-PID, (R)-propylisopropyl acetamide]", "MEASUREMENT": 13.1}

Here's the next entry for you.
(Q) Look up Vd for this compound: CCC[C@H](C(N)=O)C(C)C [(S)-PID, (S)-propylisopropyl acetamide]
(A) 17

---

Listing of entries alongside the reported half-life.
# ASSAY_PROTOCOL: Pharmacokinetic studies in mongrel dogs, intravenous injection
# Format: in vivo
# APPLIED_CONDITIONS: mongrel, dog, plasma, given as individual enantiomers, 10 mg/kg iv, read-out: t½ (converted)
Report the figure in h without appending any unit label.

(Q) Look up half-life for this compound: CCC[C@@H](C(N)=O)C(C)C [(R)-PID, (R)-propylisopropyl acetamide]
(A) 1.37

(Q) Lookup CCC[C@H](C(N)=O)C(C)C [(S)-PID, (S)-propylisopropyl acetamide]
(A) 1.04

---

# ASSAY_PROTOCOL: Pharmacokinetic studies in mongrel dogs, intravenous injection
# Type: in vivo
# APPLIED_CONDITIONS: mongrel, dog, plasma, enantiomer given in a racemic mixture, 20 mg/kg iv, read-out: MRT (Mean Residence Time)
Listing of entries alongside the reported MRT.

{"COMPOUND": "CCC[C@@H](C(N)=O)C(C)C [(R)-PID, (R)-propylisopropyl acetamide]", "MRT": "2.83 h"}

Here's the next entry for you.
(Q) Look up MRT for this compound: CCC[C@H](C(N)=O)C(C)C [(S)-PID, (S)-propylisopropyl acetamide]
(A) 2.87 h

---

Listing of entries alongside the reported clearance.
# ASSAY_PROTOCOL: Pharmacokinetic studies in mongrel dogs, intravenous injection
# Assay type: in vivo
# APPLIED_CONDITIONS: mongrel, dog, plasma, given as individual enantiomers, 10 mg/kg iv, read-out: CL (clearance) (converted)
Report the figure in mL/min without appending any unit label.

{"COMPOUND": "CCC[C@H](C(N)=O)C(C)C [(S)-PID, (S)-propylisopropyl acetamide]", "DISPLAY_UNIT": "mL/min", "clearance": 188}

Here's the next entry for you.
(Q) Look up clearance for this compound: CCC[C@@H](C(N)=O)C(C)C [(R)-PID, (R)-propylisopropyl acetamide]
(A) 113

---

Listing of entries alongside the reported MRT.
# ASSAY_PROTOCOL: Pharmacokinetic studies in mongrel dogs, intravenous injection
# Format: in vivo
# APPLIED_CONDITIONS: mongrel, dog, plasma, given as individual enantiomers, 10 mg/kg iv, read-out: MRT (Mean Residence Time)
Report the figure in h without appending any unit label.

{"COMPOUND": "CCC[C@@H](C(N)=O)C(C)C [(R)-PID, (R)-propylisopropyl acetamide]", "MRT (h)": 2.57}

Here's the next entry for you.
(Q) Look up MRT for this compound: CCC[C@H](C(N)=O)C(C)C [(S)-PID, (S)-propylisopropyl acetamide]
(A) 1.83
